Values compiled from the RNAGym collection of RNA variant scans (doi:10.1002/anie.201605470).

# self-cleavage per record follows
B1: Osa-1-4 twister ribozyme (parent)
chain: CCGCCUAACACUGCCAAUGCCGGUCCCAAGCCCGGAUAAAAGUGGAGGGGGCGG

Variants of: B1
ASSAY NAME: self-cleavage, relative activity (ratio to wild type); higher = more cleavage; co-transcriptional
Field format: numeric only.

Below are worked cases with known answers.
Exam item: Which self-cleavage value belongs to A36U C32U ?
Marked response: 0.15

Exam item: Which self-cleavage value belongs to G44C U24G ?
Marked response: 0.01

Further cases:
Exam item: Which self-cleavage value belongs to A38U C25G ?
Marked response: 0.09

Exam item: Which self-cleavage value belongs to C15U C9G ?
Marked response: 0.14

Exam item: Which self-cleavage value belongs to C14U C52U ?
Marked response: 0.52

Exam item: Which self-cleavage value belongs to A29G A7C ?
Marked response: 0.03

Exam item: Which self-cleavage value belongs to A10U A7C ?
Marked response: 0.02

Exam item: Which self-cleavage value belongs to G54U U18C ?
Marked response: 0.95
